Origin of the recorded values: paper PMC6263107

The entries below come with measured viability at 100 µM values attached.
# assay overview: in vitro
# Assay type: cell-based
# condition parameters: human, HepG2 cells; 100 µM; percent of cell viability vs DMSO-treated control; read-out: HepG2 cell viability
Give your result in % as a bare value.

compound: Nc1c2c(nc3c1C(c1ccccc1)c1oc(CO)cc(=O)c1O3)CCCC2 (centres unmarked)
viability at 100 µM, %: 108
//
compound: Cc1ccc(C2c3oc(CO)cc(=O)c3Oc3nc4c(c(N)c32)CCCC4)cc1 (centres unmarked)
viability at 100 µM, %: 113
//
compound: COc1ccc(C2c3oc(CO)cc(=O)c3Oc3nc4c(c(N)c32)CCCC4)cc1 (centres unmarked)
viability at 100 µM, %: 86.1
//
compound: Nc1c2c(nc3c1C(c1ccc(F)cc1)c1oc(CO)cc(=O)c1O3)CCCC2 (centres unmarked)
viability at 100 µM, %: 102

Per the record, COc1cccc(C2c3oc(CO)cc(=O)c3Oc3nc4c(c(N)c32)CCCC4)c1 (centres unmarked) has viability at 100 µM of 99

====

# system name: EeAChE (Electrophorus electricus)
# Sequence (O42275 24-633): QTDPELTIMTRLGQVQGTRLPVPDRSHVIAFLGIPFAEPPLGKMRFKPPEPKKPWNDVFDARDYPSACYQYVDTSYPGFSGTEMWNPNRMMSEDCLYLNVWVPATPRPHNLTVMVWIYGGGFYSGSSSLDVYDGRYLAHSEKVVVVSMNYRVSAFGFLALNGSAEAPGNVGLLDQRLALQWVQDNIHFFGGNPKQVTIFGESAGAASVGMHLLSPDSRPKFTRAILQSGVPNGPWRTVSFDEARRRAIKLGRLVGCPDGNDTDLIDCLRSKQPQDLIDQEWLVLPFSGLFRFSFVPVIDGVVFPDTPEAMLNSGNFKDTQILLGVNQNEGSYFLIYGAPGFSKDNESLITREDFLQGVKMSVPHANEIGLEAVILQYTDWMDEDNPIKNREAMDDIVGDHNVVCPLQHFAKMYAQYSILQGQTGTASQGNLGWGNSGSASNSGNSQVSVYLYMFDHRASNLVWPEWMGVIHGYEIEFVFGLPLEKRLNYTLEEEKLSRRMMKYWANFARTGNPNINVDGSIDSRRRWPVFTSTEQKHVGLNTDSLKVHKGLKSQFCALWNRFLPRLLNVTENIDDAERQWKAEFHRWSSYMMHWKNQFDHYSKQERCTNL
# assay overview: biochemical
# condition parameters: mean ± SEM
measured metric: IC50 (nM)
Give your result in nM as a bare value.

compound: Nc1c2c(nc3c1C(c1ccccc1)c1oc(CO)cc(=O)c1O3)CCCC2 (stereo not drawn) [KT2a]
scale unit: nM
IC50: 3300

compound: Cc1ccc(C2c3oc(CO)cc(=O)c3Oc3nc4c(c(N)c32)CCCC4)cc1 (stereo not drawn) [KT2b]
scale unit: nM
IC50: 1400

Please examine the following record next.
Per the record, Nc1c2c(nc3c1C(c1cccc(F)c1)c1oc(CO)cc(=O)c1O3)CCCC2 (stereo not drawn) [KT2g] has IC50 of 2140

====

The entries below come with measured viability at 100 µM values attached.
# assay overview: in vitro
# Type: cell-based
# condition parameters: human, HepG2 cells; 100 µM; percent of cell viability vs DMSO-treated control; read-out: HepG2 cell viability
Give your result in % as a bare value.

A selection of reference data follows.
molecule: COc1ccccc1C1c2oc(CO)cc(=O)c2Oc2nc3c(c(N)c21)CCCC3 (stereo not shown)
viability at 100 µM [%]: 96.1
//
molecule: Nc1c2c(nc3c1C(c1ccccc1F)c1oc(CO)cc(=O)c1O3)CCCC2 (stereo not shown)
viability at 100 µM [%]: 101
//
molecule: Nc1c2c(nc3c1C(c1c(Cl)cccc1Cl)c1oc(CO)cc(=O)c1O3)CCCC2 (stereo not shown)
viability at 100 µM [%]: 88.9
//
molecule: Nc1c2c(nc3c1C(c1ccccc1Cl)c1oc(CO)cc(=O)c1O3)CCCC2 (stereo not shown)
viability at 100 µM [%]: 95.2
//
molecule: Nc1c2c(nc3c1C(c1cccc(Cl)c1)c1oc(CO)cc(=O)c1O3)CCCC2 (stereo not shown)
viability at 100 µM [%]: 102

Per the record, Nc1c2c(nc3c1C(c1cccc(F)c1)c1oc(CO)cc(=O)c1O3)CCCC2 (stereo not shown) has viability at 100 µM of 103

Per the record, Nc1c2c(nc3c1C(c1cccc(Br)c1)c1oc(CO)cc(=O)c1O3)CCCC2 (stereo not shown) has viability at 100 µM of 101
